# assay-details: Growth of human H1299 cells at 1 uM after 48 hrs by MTT assay
# recorded-conditions: NCI-H1299, 48 h
# maps each entry to its growth, % of control at 1 µM

Example compounds with recorded growth, % of control at 1 µM:
{"compound-smiles": "Cc1ccc(C(=O)Nc2c(NC(=O)CN3CCN(c4ncccn4)CC3)ccc3c2C(=O)c2ccccc2C3=O)cc1", "growth, % of control at 1 µM": "102%"}
{"compound-smiles": "O=C(CCl)Nc1ccc2c(c1NC(=O)c1ccccc1)C(=O)c1ccccc1C2=O", "growth, % of control at 1 µM": "101%"}
{"compound-smiles": "O=C(CCl)Nc1ccc2c(c1NC(=O)COc1ccccc1)C(=O)c1ccccc1C2=O", "growth, % of control at 1 µM": "101%"}
{"compound-smiles": "O=C(CCl)Nc1ccc2c(c1NC(=O)Cc1ccccc1)C(=O)c1ccccc1C2=O", "growth, % of control at 1 µM": "81%"}
{"compound-smiles": "Cc1ccc(C(=O)Nc2c(NC(=O)CCl)ccc3c2C(=O)c2ccccc2C3=O)cc1", "growth, % of control at 1 µM": "103%"}

Given Cc1ccc(C(=O)Nc2c(NC(=O)CN3CCCC3)ccc3c2C(=O)c2ccccc2C3=O)cc1 , respond with its growth, % of control at 1 µM.
88%

Given O=C(CCl)Nc1ccc2c(c1NC(=O)c1ccccc1F)C(=O)c1ccccc1C2=O , respond with its growth, % of control at 1 µM.
78%

Given Cc1ccc(C(=O)Nc2c(NC(=O)CN3CCN(C)CC3)ccc3c2C(=O)c2ccccc2C3=O)cc1 , respond with its growth, % of control at 1 µM.
77%

Given Cc1ccc(C(=O)Nc2c(NC(=O)CN3CCSCC3)ccc3c2C(=O)c2ccccc2C3=O)cc1 , respond with its growth, % of control at 1 µM.
85%

Given O=C(CCl)Nc1ccc2c(c1NC(=O)c1ccc(C(F)(F)F)cc1)C(=O)c1ccccc1C2=O , respond with its growth, % of control at 1 µM.
86%

====

# maps each entry to its Activity
# Test system: SK-MEL-28
# assay-details: Cytotoxicity against human SK-MEL-28 cells assessed as cellular growth at 10 uM
# Type: functional
Provide only the numeric value, understood in %.

Example compounds with recorded Activity:
{"compound-smiles": "Cc1ccc(C(=O)Nc2c(NC(=O)CCl)ccc3c2C(=O)c2ccccc2C3=O)cc1", "quantity-unit": "%", "reported": -31.94}
{"compound-smiles": "O=C(CCl)Nc1ccc2c(c1NC(=O)Cc1ccccc1)C(=O)c1ccccc1C2=O", "quantity-unit": "%", "reported": 88.68}
{"compound-smiles": "Cc1ccc(C(=O)Nc2ccc3c(c2NC(=O)c2ccc(C)cc2)C(=O)c2ccccc2C3=O)cc1", "quantity-unit": "%", "reported": 99.46}
{"compound-smiles": "Cc1ccc(C(=O)Nc2c(NC(=O)CN3CCN(C)CC3)ccc3c2C(=O)c2ccccc2C3=O)cc1", "quantity-unit": "%", "reported": -57.56}

# next compound below
Given Cc1ccc(C(=O)Nc2c(NC(=O)CN3CCCC3)ccc3c2C(=O)c2ccccc2C3=O)cc1 , respond with its Activity.
92.18

====

# maps each entry to its residual activity
# tgt: Telomerase reverse transcriptase (Homo sapiens)
# assay-details: Residual activity of human TERT in H1299 cells at 100 uM after 24 hrs by SEAP reporter gene assay
Provide only the numeric value, understood in %.

Example molecules with recorded residual activity:
{"compound-smiles": "Cc1ccc(C(=O)Nc2c(NC(=O)CN3CCCC3)ccc3c2C(=O)c2ccccc2C3=O)cc1", "tgt": "Telomerase reverse transcriptase (Homo sapiens)", "measured-attribute": "residual activity", "reported": 3}
{"compound-smiles": "O=C(CCl)Nc1ccc2c(c1NC(=O)c1ccccc1)C(=O)c1ccccc1C2=O", "tgt": "Telomerase reverse transcriptase (Homo sapiens)", "measured-attribute": "residual activity", "reported": 15}
{"compound-smiles": "O=C(CCl)Nc1ccc2c(c1NC(=O)CCCCl)C(=O)c1ccccc1C2=O", "tgt": "Telomerase reverse transcriptase (Homo sapiens)", "measured-attribute": "residual activity", "reported": 30}
{"compound-smiles": "O=C(CCl)Nc1ccc2c(c1NC(=O)c1ccccc1F)C(=O)c1ccccc1C2=O", "tgt": "Telomerase reverse transcriptase (Homo sapiens)", "measured-attribute": "residual activity", "reported": 2}
{"compound-smiles": "O=C(CCl)Nc1ccc2c(c1NC(=O)Cc1ccc(F)cc1)C(=O)c1ccccc1C2=O", "tgt": "Telomerase reverse transcriptase (Homo sapiens)", "measured-attribute": "residual activity", "reported": 1}

Given O=C(CCl)Nc1ccc2c(c1NC(=O)c1ccc(Cl)cc1)C(=O)c1ccccc1C2=O , respond with its residual activity.
4

Given Cc1ccc(C(=O)Nc2c(NC(=O)CCl)ccc3c2C(=O)c2ccccc2C3=O)cc1 , respond with its residual activity.
0

Given Nc1c(NC(=O)CCl)ccc2c1C(=O)c1ccccc1C2=O , respond with its residual activity.
13

Given Cc1ccc(C(=O)Nc2c(NC(=O)CN3CCSCC3)ccc3c2C(=O)c2ccccc2C3=O)cc1 , respond with its residual activity.
12

Given Cc1ccc(C(=O)Nc2c(NC(=O)CN3CCCCC3)ccc3c2C(=O)c2ccccc2C3=O)cc1 , respond with its residual activity.
8

Given O=C(CCl)Nc1ccc2c(c1NC(=O)COc1ccccc1)C(=O)c1ccccc1C2=O , respond with its residual activity.
4

====

# assay-details: Cytotoxicity against human Hs 578T cells assessed as cellular growth at 10 uM
# Type: functional
# maps each entry to its Activity
Provide only the numeric value, understood in %.

Example compounds with recorded Activity:
{"compound-smiles": "Cc1ccc(C(=O)Nc2c(NC(=O)CN3CCN(C)CC3)ccc3c2C(=O)c2ccccc2C3=O)cc1", "Activity, %": 87.29}
{"compound-smiles": "Cc1ccc(C(=O)Nc2ccc3c(c2NC(=O)c2ccc(C)cc2)C(=O)c2ccccc2C3=O)cc1", "Activity, %": 105.96}
{"compound-smiles": "Cc1ccc(C(=O)Nc2c(NC(=O)CN3CCCC3)ccc3c2C(=O)c2ccccc2C3=O)cc1", "Activity, %": 69.39}

# next compound below
Given O=C(CCl)Nc1ccc2c(c1NC(=O)Cc1ccccc1)C(=O)c1ccccc1C2=O , respond with its Activity.
66.65

====

# Tested on: SF-295
# assay-details: Cytotoxicity against human SF295 cells assessed as cellular growth at 10 uM
# Assay type: functional
measured-attribute: Activity (%)
Provide only the numeric value, understood in %.

Given O=C(CCl)Nc1ccc2c(c1NC(=O)Cc1ccccc1)C(=O)c1ccccc1C2=O , respond with its Activity.
98.48

Given Cc1ccc(C(=O)Nc2c(NC(=O)CN3CCCC3)ccc3c2C(=O)c2ccccc2C3=O)cc1 , respond with its Activity.
68.97

Given Cc1ccc(C(=O)Nc2c(NC(=O)CN3CCN(C)CC3)ccc3c2C(=O)c2ccccc2C3=O)cc1 , respond with its Activity.
89.86

Given Cc1ccc(C(=O)Nc2ccc3c(c2NC(=O)c2ccc(C)cc2)C(=O)c2ccccc2C3=O)cc1 , respond with its Activity.
110.81

Given Cc1ccc(C(=O)Nc2c(NC(=O)CCl)ccc3c2C(=O)c2ccccc2C3=O)cc1 , respond with its Activity.
79.7

====

# maps each entry to its Activity
# System: M14
# assay-details: Cytotoxicity against human M14 cells assessed as cellular growth at 10 uM
# Type: functional
Provide only the numeric value, understood in %.

Given Cc1ccc(C(=O)Nc2c(NC(=O)CN3CCN(C)CC3)ccc3c2C(=O)c2ccccc2C3=O)cc1 , respond with its Activity.
-60.04

Given Cc1ccc(C(=O)Nc2c(NC(=O)CN3CCCC3)ccc3c2C(=O)c2ccccc2C3=O)cc1 , respond with its Activity.
88.01

Given Cc1ccc(C(=O)Nc2c(NC(=O)CCl)ccc3c2C(=O)c2ccccc2C3=O)cc1 , respond with its Activity.
-22.68

Given O=C(CCl)Nc1ccc2c(c1NC(=O)Cc1ccccc1)C(=O)c1ccccc1C2=O , respond with its Activity.
87.1

====

# tgt: UniProtKB O14746
# Sequence (O14746 whole entry): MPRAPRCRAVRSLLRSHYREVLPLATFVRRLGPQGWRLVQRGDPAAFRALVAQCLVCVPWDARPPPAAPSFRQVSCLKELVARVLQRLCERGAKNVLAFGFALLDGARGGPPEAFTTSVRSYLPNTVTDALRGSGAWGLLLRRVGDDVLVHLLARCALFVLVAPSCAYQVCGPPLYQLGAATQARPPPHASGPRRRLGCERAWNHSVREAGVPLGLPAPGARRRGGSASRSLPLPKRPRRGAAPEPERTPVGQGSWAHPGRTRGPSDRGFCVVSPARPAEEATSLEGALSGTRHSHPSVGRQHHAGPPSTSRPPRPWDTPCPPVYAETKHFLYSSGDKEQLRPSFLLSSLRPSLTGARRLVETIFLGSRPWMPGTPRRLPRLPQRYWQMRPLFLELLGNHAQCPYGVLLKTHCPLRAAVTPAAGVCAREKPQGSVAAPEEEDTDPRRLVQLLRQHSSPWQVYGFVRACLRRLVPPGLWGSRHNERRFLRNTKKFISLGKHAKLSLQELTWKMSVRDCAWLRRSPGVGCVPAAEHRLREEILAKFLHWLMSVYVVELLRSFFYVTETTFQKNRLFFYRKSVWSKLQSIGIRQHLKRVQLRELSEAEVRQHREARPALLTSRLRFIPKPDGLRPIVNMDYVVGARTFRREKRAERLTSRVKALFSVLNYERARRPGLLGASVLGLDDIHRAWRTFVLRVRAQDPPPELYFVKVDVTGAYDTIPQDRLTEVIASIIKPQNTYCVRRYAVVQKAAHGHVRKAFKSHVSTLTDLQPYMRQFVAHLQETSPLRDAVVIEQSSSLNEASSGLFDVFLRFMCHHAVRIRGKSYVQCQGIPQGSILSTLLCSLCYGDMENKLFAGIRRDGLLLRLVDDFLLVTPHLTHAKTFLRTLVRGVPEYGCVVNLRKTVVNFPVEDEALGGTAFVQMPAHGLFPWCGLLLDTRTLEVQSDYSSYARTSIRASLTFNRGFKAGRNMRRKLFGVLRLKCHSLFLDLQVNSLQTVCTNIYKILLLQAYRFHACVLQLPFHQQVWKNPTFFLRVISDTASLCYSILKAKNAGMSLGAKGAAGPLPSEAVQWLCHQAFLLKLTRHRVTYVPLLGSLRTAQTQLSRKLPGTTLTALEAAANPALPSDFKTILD
# assay-details: Residual activity of human TERT in H1299 cells at 10 uM after 24 hrs by SEAP reporter gene assay
Threshold check on residual activity: strictly below 50% is Yes; on or above 50% is No.

{"compound-smiles": "O=C(CCl)Nc1ccc2c(c1NC(=O)COc1ccccc1)C(=O)c1ccccc1C2=O", "group": "No"}
{"compound-smiles": "Cc1ccc(C(=O)Nc2c(NC(=O)CN3CCOCC3)ccc3c2C(=O)c2ccccc2C3=O)cc1", "group": "No"}
{"compound-smiles": "Cc1ccc(C(=O)Nc2c(NC(=O)CN(C)CC3OCCO3)ccc3c2C(=O)c2ccccc2C3=O)cc1", "group": "No"}

Lab note: confirm whether the reported residual activity for this compound is below 50%, equality not counting. compound: Cc1ccc(C(=O)Nc2c(NC(=O)CN3CCN(C)CC3)ccc3c2C(=O)c2ccccc2C3=O)cc1
Yes

Lab note: confirm whether the reported residual activity for this compound is below 50%, equality not counting. compound: O=C(CCl)Nc1ccc2c(c1NC(=O)CCCl)C(=O)c1ccccc1C2=O
No

Lab note: confirm whether the reported residual activity for this compound is below 50%, equality not counting. compound: O=C(CCl)Nc1ccc2c(c1NC(=O)c1ccc(C(F)(F)F)cc1)C(=O)c1ccccc1C2=O
Yes

Lab note: confirm whether the reported residual activity for this compound is below 50%, equality not counting. compound: Nc1c(NC(=O)CCl)ccc2c1C(=O)c1ccccc1C2=O
Yes
